test system: KM12; test: NCI tumour cell line growth inhibition, 48 h
The source made the active and inactive calls. Rule as the data show it: active = GI50 up to about 1.1 µM and inactive = higher.
readoutLabel: GI50

Worked cases, answers included:
>  <compound>
CCC(C)C1(O)OC2CC3(C)OC(=CC3=O)/C(C)=C\C3OC(=O)C1(C)C32 (stereo not given)

>  <GI50>
10.6 µM (inactive)

$$$$
>  <compound>
c1ccc(CNn2nnc3ccccc32)cc1

>  <GI50>
> 100 µM (inactive)

$$$$
>  <compound>
O=C1/C(=C/c2ccccc2)CCCc2ccccc21

>  <GI50>
18.1 µM (inactive)

$$$$
>  <compound>
O=C(CCc1ccccc1)ON1C(=S)NC(c2ccccc2)(c2ccccc2)C1=S

>  <GI50>
27.4 µM (inactive)

$$$$
>  <compound>
Nc1c(-c2cccc3ccccc23)c2ccc([N+](=O)[O-])cc2c(=O)n1-c1nc2ccccc2s1

>  <GI50>
3.84 µM (inactive)

$$$$
>  <compound>
CCOC(=O)c1c(NC(=O)c2ccc(Br)cc2)sc2c1CCCC2

>  <GI50>
39.1 µM (inactive)

$$$$
>  <compound>
NC(=O)Nc1cc(O)ccc1/N=N/c1ccc(S(=O)(=O)Nc2ccccn2)cc1

>  <GI50>
> 100 µM (inactive)

$$$$
>  <compound>
CCCC(=O)Nc1ccc2c(c1)CN1C(=O)c3ccccc3C1=N2

>  <GI50>
> 100 µM (inactive)

$$$$

List the reported GI50 of each compound below.
1. Oc1ccc(Cl)cc1C1=NC(NCN2CCN(CNC3=NC(c4ccccc4)CC(c4cc(Cl)ccc4O)=N3)CC2)=NC(c2ccccc2)C1 (stereo not given)
2. O=C(/C=C(\O)C(=O)O)/C=C(\O)c1ccc(Cl)cc1

1: 37.1 µM (inactive); 2: > 100 µM (inactive)
